ASSAY_TEXT: soluble on expression in E. coli; label from the status in PepcDB or PDB records

CHAIN_SEQUENCE	soluble on expression in E. coli
MAHHHHHHMQWKKDDLFEGLRKLPRTPGELFGHRNKLNFILQKRFFIAPDMVELALNRQNGEQFNRCYAKLVMQAVAKFNNTTRSQLKVRVDPRLPKGLQLIQPDDKDTGANLKSKKSEKAASGRLNAFSNTTSGQQRKPQQRQQSRYCSPQSGGVSPRVVMPIDPAERDCLYATYLRARTPQSGTPDYSDMMLQSPSCATDGKTTMFSEDGSSALRSATRRSAGDVHFATPPVFKGFERTLELTPADSPTESLPLHF	not soluble
MSLIDFHFHAPVKEFLDFLGEFGEPAIKYFNAKVEVKGLKETLDYYESFGIKRFVVLPIDSTTFLGRRIPNQVINLDDRIVKFISVDPSKPNADEELKRSIKEFEPVGVKLHPQLQGFHPLDERALKIYEIIDNHGLIVVFHTGTSGIGAGVKSSIRLDYGRPIYFDEIAVRFQNMKIILAHFGWPWTEEAIAIALHKPNVYLDLSGWAPRYIPQVIWSNAKRLSDKLLFGSDFPLIRPERWLEEFKSVNLSQDIKDKILKHNAEKLVKKSEGHHHHHH	not soluble

* * *

ASSAY_TEXT: soluble on expression in E. coli; label from the status in PepcDB or PDB records

CHAIN_SEQUENCE	soluble on expression in E. coli
MPTVLRWTRTMCKRPTCRVRQAWLVLPITGRWPSGGVSMKHACMLDSALPKPSQHSLRRQLNAIKREQFPWMSEVTKNAPQMAIIQLGRAFQNFFAGRAKYPKFRKKGMHDRFTLTNDQFDLEASRIRIPRLGWVRMRETLRFAGKIMLATVSRVAGRWFVSITVDVPDPSHLPQAENQGTVGVDLGVLVLATLSTGETVCGPRPHRALLGRVCRLSRSVLRKVKGSANRHKAKATLANLHARIAAIRLDALHTLTSDLTRRFHTIGIENLNVKGMLRNRHLARSIADIGFFEFRRQLEYKAMMRGGQVVVANRFFASSKRCLTCGHTLNELPLSVRQWACPACGARHDRDVNAAVNLKNMAVSSTVSACGEEGAGPRRKTAVGEAGSQLLEHHHHHH	not soluble
MGHHHHHHSHMKPSGEDQAALAAGPWEECFQAAVQLALRAGQIIRKALTEEKRVSTKTSAADLVTETDHLVEDLIISELRERFPSHRFIAEEAAASGAKCVLTHSPTWIIDPIDGTCNFVHRFPTVAVSIGFAVRQELEFGVIYHCTEERLYTGRRGRGAFCNGQRLRVSGETDLSKALVLTEIGPKRDPATLKLFLSNMERLLHAKAHGVRVIGSSTLALCHLASGAADAYYQFGLHCWDLAAATVIIREAGGIVIDTSGGPLDLMACRVVAASTREMAMLIAQALQTINYGRDDEK	not soluble
MSLNGKNLTLNVPVTAAVPGARGIKADCITDGACTESSTYFQKSSNAATGSPYMFTIDMQKEAVISEINLSTRLVNGSEAAYKYTIEGSRDGKSYKMLVDGKLNWQVGFLILNIEDPSLYRYLRLRVYGVVNVHKNNSAMWADGIYEFAAYGKEGHHHHHH	not soluble

* * *

ASSAY_TEXT: soluble on expression in E. coli; label from the status in PepcDB or PDB records
QUANTITY_NAME: soluble on expression in E. coli

CHAIN_SEQUENCE	REPORTED_VALUE
MSLRKGIIAAGNMLVDHVHQIRQWPERGWLVEIVHSERATGGAPLNVLLTLAKMHAGLPLQAVGLIGEDNDGDYITAMLDQYHINRQLVQRTSSAPTSMTQVMTDAEGQRTFFHSPGANRLLDLPAFEPLDAPLKIFHLGYLLLLESLDRPDEVYGTRSARLLAQMRERGYEVSLDLVSRKGDPRYRPLVLPALKHLDYLTINELEASEFSGLEIRLPNGEPHVANIARAASALLDAGVRQRVVIHCPEGAWGVSRTEAGRWVPSWRLPPEEIIGSVGAGDAFCAGLLYGSHERWPLTASLQLAHACARASLQAANAIDGAKTLPELQAFIQLQNGEGHHHHHH	soluble
MLPDSSVRLNKYISESGICSRREADRYIEQGNVFLNGKRATIGDQVKPGDIVKVNGQLIEPREAEDLVLIALNKPVGIVSTTEDGERDNIVDFVNHSKRVFPIGRLDKDSQGLIFLTNHGDLVNKILRAGNDHEKEYLVTVDKPITDEFIRGMGAGVPILGTVTKKCKVKKEAPFVFRITLVQGLNRQIRRMCEHFGYEVKKLERTRIMNVSLSGIPLGEWRDLTDDELIDLFKLIENSSSEAKPKAKAKPKTAGIKRPVVKMEKTAEKGGRPASNGKRFTSPGRKKKGR	not soluble
MKYDTSELCDIYQEDVNVVEPLFSNFGGRASFGGQIITVKCFEDNGLLYDLLEQNGRGRVLVVDGGGSVRRALVDAELARLAVQNEWEGLVIYGAVRQVDDLEELDIGIQAMAAIPVGAAGEGIGESDVRVNFGGVTFFSGDHLYADNTGIILSEDPLDIE	soluble
MVRTVKSYNGEADDLAGQIHTLPAVWVTYGGSKVEPASTGGVCGRYQDTAEFVVMVAARNLRNEQAQRQGGIDSREIGSNDLIRAVRRLLDGQRLGFADSRGLVPKAVRAIANHVLVQNAAVSIYAVEYAIRFNTCGLENDRYPERTDNPDDPNHIFTKYQGTLSEPWPDFEGLDGKIYDPQSADEIPVNLTLKDKQ	not soluble
MGSDKIHHHHHHMRWFSLATAFLWGYYGFDNFGDELMFKACVNLLRELGFGTIYTPLPKGKKSMGVTSVDRYSIKLLSLLKKSQVSIAGGGGLFQDVTSLRSLLYYYSISKASLLMDKPLIFFGNSVGPLRRRLSKKLVWDVFKDKRTVFIARDPASYRYVKMVGGNAVLGTDPAIIHLMESDMEKKTEKKAVFFLKSPMDVSYILKSLRDQGINDFVISTAFPGDHSYLPPLRNGENLLEEIVSSSIVITERFHPALVAAYFEIPFIIVDCQKARRFFARYTKEDHFFSKRDPLEISLKVPVVLKKELKLKEKMKNDAIEMKEMLKGVLKGW	not soluble
AIASCGKPQETYSTSSILTREQFEIQHQEEDTIGEQVIFIDGVAYNSRGFRVCGAPNQRGGFCARFGQCPFHKDKVTTFKMSEETVSEFPRQLLTESCNLLQNNERKFKNAWKLDEHHRFLVALKKFGHGNWRQIADYVETRSASQCQSHAQKYYLRKRKLASNANLKRSIFDLIDEDTLSVEIGEEDTWNIIQKCPSKEAQGSVRSRSKTLQRMSTDSSVESYPIRELSTVDSELSTLQTYKQASFFIRIFRNGVFSHGVDLELPNSLASFFIKAAQLLDMSVATKAYTRSGFEISSLHEVCPGDILWISSGEEFIFPSPVQYIET	soluble

// provenance: the DeepSol protein solubility set
